- MEASURED TARGET: mouse VISTA (mVISTA) (Mus musculus, UniProt Q9D659)
- Construct: expressed in transfected cells; host or cells: Human embryonic kidney 293T cells
- Sequence (Q9D659 33-308): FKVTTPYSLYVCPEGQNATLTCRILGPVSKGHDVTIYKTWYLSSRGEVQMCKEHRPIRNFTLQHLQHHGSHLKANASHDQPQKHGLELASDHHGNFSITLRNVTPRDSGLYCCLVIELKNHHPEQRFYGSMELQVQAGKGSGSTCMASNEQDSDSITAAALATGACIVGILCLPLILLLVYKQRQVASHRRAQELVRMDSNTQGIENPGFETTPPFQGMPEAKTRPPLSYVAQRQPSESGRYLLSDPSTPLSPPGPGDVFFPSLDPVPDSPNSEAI
- TEST: Cell-Based Binding High-Content Assay For mVISTA (HC CBA mVISTA)
- CONDITION SUMMARY: 293T cells expressing mouse VISTA; competition with biotinylated peptide (2 nM); read-out: HC CBA mVISTA IC50
- Description: Cell-Based Binding High-Content Assay For mVISTA Human embryonic kidney 293T cells (293T) expressing mouse VISTA (mVISTA) were used for the assessment of compounds competing with the binding of a biotinylated peptide. […] The plates were washed 3 times in dPBS, sealed, and read on a CellInsight NXT High Content Screening Platform IC903000 (Thermo Scientific). […]
Positions of bridges follow the written chain, without caps; N, C: chain ends. Non-standard residues stand in square brackets, D forms with d. Residues, ends and D or L forms follow the SMILES beside them. N(3-phenylpropyl)Gly = O=C(O)CNCCCc1ccccc1; Ahp(2) = CCCCC[C@H](N)C(=O)O; NMeNle = CCCC[C@H](NC)C(=O)O; NHexGly = CCCCCCNCC(=O)O; Nle = CCCC[C@H](N)C(=O)O; Orn = NCCC[C@H](N)C(=O)O

[
  {
    "MOLECULE": "CCCCCCN1CC(=O)N[C@@H](Cc2ccc(O)cc2)C(=O)N[C@@H](CCCCC)C(=O)N[C@@H](CC(=O)O)C(=O)N[C@@H](CCCNC(=N)N)C(=O)N[C@@H](CC(C)C)C(=O)N[C@@H](CCCCC)C(=O)N2CCC[C@H]2C(=O)N[C@@H](C(C)C)C(=O)N[C@@H](CC(=O)O)C(=O)N[C@H](C(=O)NCC(=O)O)CSCC(=O)N[C@@H](Cc2ccccc2)C(=O)N[C@@H](Cc2ccc(O)cc2)C(=O)N[C@@H](CC(=O)O)C1=O [Example 1013] ({CH2CO}-FYD[NHexGly]Y[Ahp(2)]DRL[Ahp(2)]PVDCG-OH; thioether N-14)",
    "IC50": "17.1 nM"
  },
  {
    "MOLECULE": "CCCCC[C@@H]1NC(=O)[C@H](CCCC)N(C)C(=O)[C@H](CCCN)NC(=O)[C@H](CC(N)=O)NC(=O)[C@H](CC(C)C)NC(=O)[C@H](Cc2ccc(O)cc2)NC(=O)CN(CCCc2ccccc2)C(=O)[C@H](CC(=O)O)NC(=O)[C@H](Cc2ccc(O)cc2)NC(=O)[C@H](Cc2ccccc2)NC(=O)CSC[C@@H](C(=O)NCC(N)=O)NC(=O)[C@H](CO)NC(=O)[C@H](C(C)C)NC(=O)[C@@H]2CCCN2C1=O [Example 1085] ({CH2CO}-FYD[N(3-phenylpropyl)Gly]YLN[Orn][NMeNle][Ahp(2)]PVSCG-NH2; thioether N-14)",
    "IC50": "31.8 nM"
  },
  {
    "MOLECULE": "CCCCCCN1CC(=O)N[C@@H](Cc2ccc(O)cc2)C(=O)N[C@@H](CCCC)C(=O)N[C@@H](CC(=O)O)C(=O)N[C@@H](CCCNC(=N)N)C(=O)N[C@@H](CC(C)C)C(=O)N[C@@H](CCCCC)C(=O)N2CCC[C@H]2C(=O)N[C@@H](C(C)C)C(=O)N[C@@H](CC(=O)O)C(=O)N[C@H](C(=O)N[C@H](CC(=O)O)C(N)=O)CSCC(=O)N[C@@H](Cc2ccccc2)C(=O)N[C@@H](Cc2ccc(O)cc2)C(=O)N[C@@H](CC(=O)O)C1=O [Example 1003] ({CH2CO}-FYD[NHexGly]Y[Nle]DRL[Ahp(2)]PVDC[dD]-NH2; thioether N-14)",
    "IC50": "18.8 nM"
  },
  {
    "MOLECULE": "CCCCCCN1CC(=O)N[C@@H](Cc2ccc(O)cc2)C(=O)N[C@@H](CCCC)C(=O)NCC(=O)N[C@@H](CCCNC(=N)N)C(=O)N[C@@H](CC(C)C)C(=O)N[C@@H](CCCCC)C(=O)N2CCC[C@H]2C(=O)N[C@@H](C(C)C)C(=O)N[C@@H](CC(=O)O)C(=O)N[C@H](C(=O)NCC(=O)O)CSCC(=O)N[C@@H](Cc2ccccc2)C(=O)N[C@@H](Cc2ccc(O)cc2)C(=O)N[C@@H](CC(=O)O)C1=O [Example 1009] ({CH2CO}-FYD[NHexGly]Y[Nle]GRL[Ahp(2)]PVDCG-OH; thioether N-14)",
    "IC50": "8 nM"
  }
]

----------
- MEASURED TARGET: mouse VISTA (mVISTA) (Mus musculus)
- Construct: expressed in transfected cells; host or cells: Human embryonic kidney 293T cells
- TEST: Cell-Based Binding High-Content Assay For mVISTA (HC CBA mVISTA)
- CONDITION SUMMARY: 293T cells expressing mouse VISTA; competition with biotinylated peptide (2 nM); read-out: HC CBA mVISTA IC50
Positions of bridges follow the written chain, without caps; N, C: chain ends. Non-standard residues stand in square brackets, D forms with d. Residues, ends and D or L forms follow the SMILES beside them. Ahp(2) = CCCCC[C@H](N)C(=O)O; NHexGly = CCCCCCNCC(=O)O; Nle = CCCC[C@H](N)C(=O)O
QUANTITY KIND: IC50 (µM)

[
  {
    "COMPOUND": "CCCCCCN1CC(=O)N[C@@H](Cc2ccc(O)cc2)C(=O)N[C@@H](CCCCC)C(=O)N[C@@H](CC(N)=O)C(=O)N[C@@H](CCCNC(=N)N)C(=O)N[C@@H](CC(C)C)C(=O)N[C@@H](CCCCC)C(=O)N2CCC[C@H]2C(=O)N[C@@H](C(C)C)C(=O)N[C@@H](CO)C(=O)N[C@H](C(=O)NCC(=O)O)CSCC(=O)N[C@@H](Cc2ccccc2)C(=O)N[C@@H](Cc2ccc(O)cc2)C(=O)N[C@@H](CC(=O)O)C1=O [Example 1034] ({CH2CO}-FYD[NHexGly]Y[Ahp(2)]NRL[Ahp(2)]PVSCG-OH; thioether N-14)",
    "QUANTITY KIND": "IC50",
    "UNIT TAG": "µM",
    "ASSAY RESULT": 0.0037
  },
  {
    "COMPOUND": "CCCCCCN1CC(=O)N[C@@H](Cc2ccc(O)cc2)C(=O)N[C@@H](CCCC)C(=O)N[C@@H](CC(N)=O)C(=O)N[C@@H](CCCNC(=N)N)C(=O)N[C@@H](CC(C)C)C(=O)N[C@@H](CCCCC)C(=O)N2CCC[C@H]2C(=O)N[C@@H](C(C)C)C(=O)N[C@@H](CO)C(=O)N[C@H](C(=O)NCC(N)=O)CSCC(=O)N[C@@H](Cc2ccccc2)C(=O)N[C@@H](Cc2ccc(O)cc2)C(=O)N[C@@H](CC(=O)O)C1=O [Example 1033] ({CH2CO}-FYD[NHexGly]Y[Nle]NRL[Ahp(2)]PVSCG-NH2; thioether N-14)",
    "QUANTITY KIND": "IC50",
    "UNIT TAG": "µM",
    "ASSAY RESULT": 0.0167
  },
  {
    "COMPOUND": "CCCCCCN1CC(=O)N[C@@H](Cc2ccc(O)cc2)C(=O)N[C@@H](CCCCC)C(=O)N[C@@H](CC(=O)O)C(=O)N[C@@H](CCCNC(=N)N)C(=O)N[C@@H](CC(C)C)C(=O)N[C@@H](CCCCC)C(=O)N2CCC[C@H]2C(=O)N[C@@H](C(C)C)C(=O)N[C@@H](CC(=O)O)C(=O)N[C@H](C(=O)NCC(N)=O)CSCC(=O)N[C@@H](Cc2ccccc2)C(=O)N[C@@H](Cc2ccc(O)cc2)C(=O)N[C@@H](CC(=O)O)C1=O [Example 1015] ({CH2CO}-FYD[NHexGly]Y[Ahp(2)]DRL[Ahp(2)]PVDCG-NH2; thioether N-14)",
    "QUANTITY KIND": "IC50",
    "UNIT TAG": "µM",
    "ASSAY RESULT": 0.0087
  },
  {
    "COMPOUND": "CCCCCCN1CC(=O)N[C@@H](Cc2ccc(O)cc2)C(=O)N[C@@H](CCCC)C(=O)N[C@@H](CC(N)=O)C(=O)N[C@@H](CCCNC(=N)N)C(=O)N[C@@H](CC(C)C)C(=O)N[C@@H](CCCCC)C(=O)N2CCC[C@H]2C(=O)N[C@@H](C(C)C)C(=O)N[C@@H](CO)C(=O)N[C@H](C(=O)NCC(=O)O)CSCC(=O)N[C@@H](Cc2ccccc2)C(=O)N[C@@H](Cc2ccc(O)cc2)C(=O)N[C@@H](CC(=O)O)C1=O [Example 1046] ({CH2CO}-FYD[NHexGly]Y[Nle]NRL[Ahp(2)]PVSCG-OH; thioether N-14)",
    "QUANTITY KIND": "IC50",
    "UNIT TAG": "µM",
    "ASSAY RESULT": 0.014
  }
]
